Molecular target: human nicotinic alpha7 WT receptor (Homo sapiens, UniProt P36544)
Sequence (P36544 23-502): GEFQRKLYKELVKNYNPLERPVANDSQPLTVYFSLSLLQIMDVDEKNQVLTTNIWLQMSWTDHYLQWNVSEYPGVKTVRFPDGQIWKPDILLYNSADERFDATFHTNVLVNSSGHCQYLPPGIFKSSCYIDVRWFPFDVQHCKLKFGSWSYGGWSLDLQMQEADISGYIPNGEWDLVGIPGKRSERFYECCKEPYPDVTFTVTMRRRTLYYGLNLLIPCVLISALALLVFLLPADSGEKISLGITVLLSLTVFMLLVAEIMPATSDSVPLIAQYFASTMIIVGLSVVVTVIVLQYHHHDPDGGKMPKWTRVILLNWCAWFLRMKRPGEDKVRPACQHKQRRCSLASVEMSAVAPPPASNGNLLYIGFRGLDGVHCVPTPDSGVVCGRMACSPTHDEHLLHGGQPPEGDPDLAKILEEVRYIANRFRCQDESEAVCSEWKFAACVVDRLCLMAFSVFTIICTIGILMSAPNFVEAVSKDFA
Assay: Nicotinic alpha 7 modulation assay (FLIPR, cytosolic Ca2+ elevation, FLUO-3)
Procedure: Cell Culture Growth Media: F10 medium (Invitrogen), 2.5% Fetal Bovine Serum (FBS, Summit Biotechnology); 15% heat inactivated donor Horse Serum (Invitrogen), 250 μg/ml Hygromycin B (Invitrogen); and 100 nM Methyllicaconite (MLA, Sigma) are added to each new culture by 50-fold dilution of stock solution prepared in H2O at […]. […]
recorded endpoint: EC50 (nM)
Give just the numeric value; nM need not be written.

Item C#CC1(NC(=O)c2cc(-c3ccc(OC)cc3C)ccc2OCC2CC2)CCCCC1 with human nicotinic alpha7 WT receptor (Homo sapiens, UniProt P36544) - EC50?
220

// provenance: patent US8198332B2
